Molecular target: acetylcholine receptor (Homo sapiens)
Sequence (P02708 21-457): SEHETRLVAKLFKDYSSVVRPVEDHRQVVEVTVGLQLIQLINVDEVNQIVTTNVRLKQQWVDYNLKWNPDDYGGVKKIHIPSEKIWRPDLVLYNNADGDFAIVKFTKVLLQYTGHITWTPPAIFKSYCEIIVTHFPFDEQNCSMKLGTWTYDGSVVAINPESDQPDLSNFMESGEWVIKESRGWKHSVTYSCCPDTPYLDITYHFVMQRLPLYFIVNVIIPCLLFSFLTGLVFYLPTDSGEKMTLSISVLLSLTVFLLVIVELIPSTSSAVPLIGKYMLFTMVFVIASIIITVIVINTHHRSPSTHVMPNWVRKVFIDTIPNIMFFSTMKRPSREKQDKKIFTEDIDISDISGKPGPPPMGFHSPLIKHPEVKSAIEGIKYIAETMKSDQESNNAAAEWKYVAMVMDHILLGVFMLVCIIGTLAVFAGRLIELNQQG
Experiment: SPR binding affinity (RU) of optimized 5mer/6mer/7mer peptides, Examples 6-7
Conditions: SPR, Resonance Units; peptides tested at 10 μM; 6mer-2 Bottom sequence
MEASURED QUANTITY: Binding affinity (Ru)
Reply with just the number (in Ru).

// known answers, use as guide
6mer-2-751 (RPHWKR)
12
6mer-2-728 (RMTMKK)
23
6mer-2-880 (RTHHKK)
12
6mer-2-945 (KKCERK)
42
6mer-2-957 (RDTHRR)
40

Binding affinity for acetylcholine receptor (Homo sapiens) with input 6mer-2-912 (RAPIRR) equals 27

Form field Binding affinity for item 6mer-2-906 (KYCDKK) on acetylcholine receptor (Homo sapiens): 40

Item 6mer-2-838 (RCTVRK) ; assay system acetylcholine receptor (Homo sapiens); Binding affinity reported as 13
